Biological target: BV2542 (recombinant CoV S glycoprotein, BA.2.12.1) (SARS-CoV-2, UniProt P0DTC2 14-1273)
Assay: hACE2 receptor inhibition ELISA on coated rS; competitor hACE2-His
Catalogue of IC50 readings, one per entry.
Numeric only. Scale: µg/mL

Below: 2 binders and their reported IC50.
{"binder": "35.13 (antibody, V domains shown) VH: QVQLQQSGAELGKPGASVKLSCRASGYTFTRYYIYWVKQRPGQGLEWIGEINPSNGDTHFNEKFKTKATLTVDKSSSSAHIHLTSLTSEDSAVYYCSIHAYSFDFWGQGTTLTVSS VL: EIQMTQSPSSMSASLGDRITITCQATQDIVKNLNWYQQKPGKPPSFLIYHATELAKGVPSRFSGSGSGSDYSLTISNLESEDFADYYCLQFYDFPFTFGAGTKLELKR", "IC50, µg/mL": 0.177}
{"binder": "425.6 (antibody, V domains shown) VH: VQLKQSGPSLVQPSQSLSITCTVSGFSLTSYGIHWVRQSPGKGLEWLGVIWRGGSTDYNAAFMSRLTITKDNSKSQVFFKMNSLQADDTAIYYCATHTEGDDVDYWGQGTSVTVSS VL: QIVLTQSPAIMSVSPGEKVTMTCSASSTMSFMYWYQQKPGSSPRLLIYDTSNLASGVPVRFSGSGSGTSYSLTISRVEAEDAATYYCQQWNTYPLTFGAGTKLELKR", "IC50, µg/mL": 0.028}

Next up:
Returns the measured IC50 for the input binder. Input: 322.3 (antibody, V domains shown) VH: RVQLQQSGPELVKPGASVTISCKASGYIFTSDYIHWVKQRPGQGPEWIGWIYPGNINTKYNEKFKGKATLTADKSSSTAYMQLSSLTSEDSAVYFCARDDGNLYYYAMDYWGQGTSVTVSS VL: NIVLTQSPASLAVSLGQRATISCRASESVDSYGSSFMHWYQQKPGQPPKLLIYLASNLESGVPARFSGSGSRTDFTLTIDPVEADDAATYYCQQNNEDPRTFGGGTKLEIK
0.866

These data points were gathered from patent US20250066456A1.
